# TARGET SYSTEM: Nuclear receptor coactivator 1 (Homo sapiens) (UniProt Q15788)
# Sequence (Q15788 whole entry, looked up): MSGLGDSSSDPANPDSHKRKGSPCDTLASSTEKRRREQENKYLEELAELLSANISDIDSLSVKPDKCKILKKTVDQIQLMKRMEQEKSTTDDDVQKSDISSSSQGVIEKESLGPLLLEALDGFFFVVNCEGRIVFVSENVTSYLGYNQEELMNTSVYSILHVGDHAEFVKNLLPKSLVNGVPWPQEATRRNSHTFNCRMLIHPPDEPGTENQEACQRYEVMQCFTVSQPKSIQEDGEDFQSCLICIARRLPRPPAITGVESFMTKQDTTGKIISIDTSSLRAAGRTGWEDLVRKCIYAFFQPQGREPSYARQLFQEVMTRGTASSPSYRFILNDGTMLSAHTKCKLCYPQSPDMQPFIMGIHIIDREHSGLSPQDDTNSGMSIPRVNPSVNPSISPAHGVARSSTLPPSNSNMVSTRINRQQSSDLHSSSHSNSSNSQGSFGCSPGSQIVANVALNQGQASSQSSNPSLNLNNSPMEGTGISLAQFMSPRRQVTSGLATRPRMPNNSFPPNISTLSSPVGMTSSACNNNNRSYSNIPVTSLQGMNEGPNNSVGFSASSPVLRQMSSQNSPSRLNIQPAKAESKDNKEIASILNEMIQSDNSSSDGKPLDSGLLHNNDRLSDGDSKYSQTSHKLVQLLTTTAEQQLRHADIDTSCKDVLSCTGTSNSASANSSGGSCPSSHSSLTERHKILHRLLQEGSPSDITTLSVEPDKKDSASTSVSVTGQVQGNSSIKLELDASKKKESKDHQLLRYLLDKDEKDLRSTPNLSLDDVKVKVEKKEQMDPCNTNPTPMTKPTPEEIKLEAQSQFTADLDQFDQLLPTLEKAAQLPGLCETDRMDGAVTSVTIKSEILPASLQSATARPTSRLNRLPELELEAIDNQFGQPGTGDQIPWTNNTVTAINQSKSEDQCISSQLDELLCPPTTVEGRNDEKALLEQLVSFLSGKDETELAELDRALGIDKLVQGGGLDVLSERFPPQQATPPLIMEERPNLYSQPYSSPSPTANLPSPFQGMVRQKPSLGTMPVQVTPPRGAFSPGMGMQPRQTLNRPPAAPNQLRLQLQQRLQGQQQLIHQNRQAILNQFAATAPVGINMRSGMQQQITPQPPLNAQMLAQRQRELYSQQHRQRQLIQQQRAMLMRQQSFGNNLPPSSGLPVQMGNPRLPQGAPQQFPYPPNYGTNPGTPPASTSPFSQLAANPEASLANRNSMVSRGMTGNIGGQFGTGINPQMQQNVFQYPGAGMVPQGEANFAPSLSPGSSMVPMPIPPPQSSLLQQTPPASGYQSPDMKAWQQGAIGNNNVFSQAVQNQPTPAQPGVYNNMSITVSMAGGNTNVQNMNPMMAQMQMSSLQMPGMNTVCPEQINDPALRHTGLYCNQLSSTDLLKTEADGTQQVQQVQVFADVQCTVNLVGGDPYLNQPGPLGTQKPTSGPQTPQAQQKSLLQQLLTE
# ASSAY PROTOCOL: SRC1 coactivator transcriptional activity inhibitors, confirmation, cell-based, luminescence, quadruplicate (AID 588820);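 also: 0% = DMSO wells and 100% = gossypol 36 µM treated wells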
# CONDITION INFO: HEK293 GAL4-SRC1 luciferase reporter, at 3.6 µM, stronger effect = higher value
Hi there, I'd appreciate the recorded inhibition for every entry that follows.
# output: bare number, implied unit %

Noted for COc1ccc(NC(=O)c2sc(=O)n(Cc3cccc(C(F)(F)F)c3)c2C)cc1OC : its inhibition reads 19

Lab book: inhibition of CN(C)CCNC(=O)c1ccc(Cl)c2cc3ccccc3nc12 noted as 14.8

Please fill in: inhibition reported for O=C(COC(=O)COc1ccccc1)NCCc1ccccc1 = -16.7

The measured inhibition associated with CC1(C)CCSC(/C=C/c2ccccc2)=N1 reads 46.1

The measured inhibition associated with CN1C(=O)C(O)(C2CCCCCC2=O)c2ccccc21 (stereo unspecified) reads -7.54

Data point: CCN(CC)CCCNc1ccc2ncn3c4ccc(O)cc4c(=O)c1c23 ; inhibition = 47.9

###

# Tested on: HIV-1 integrase / human LEDGF/p75 complex
# ASSAY PROTOCOL: inhibitors of HIV-1 IN-LEDGF/p75 DNA integration, confirmation, biochemical, TR-FRET (AID 1053136)
# CONDITION INFO: TR-FRET LEDGF/p75-dependent HIV-1 integration, at 3.7 µM, stronger effect = higher value
Some of the results follow. Active and inactive are the calls of the source. Rule as the data show it: active = inhibition above about 14%; inactive = the rest.
Give inhibition for every item shown.

# inhibition of c1ccc(C2=Nc3cccc4cccc(c34)N2)cc1 = 8.24% (inactive)

Consider O=C(O)CCC(=O)Nc1ccc(N2CCOCC2)cc1 . Its measured inhibition is 1.39% (inactive)

Quick note, inhibition for COc1c(O)cc2oc(-c3ccc(O)c(O)c3)cc(=O)c2c1O landed at 89.6% (active)

Record CCc1cc2cc(OC)ccc2nc1SCC(=O)Nc1cc(OC)c(OC)cc1C(=O)O . Reported inhibition: 5.77% (inactive)

The compound listed as Cc1sc2nc(SCC(=O)c3ccc(O)c(O)c3)n(Cc3ccco3)c(=O)c2c1C shows inhibition equal to 39.2% (active)

Input O=C(NC1CCCCC1)N1CCc2[nH]c3ccccc3c2C1 . Output inhibition: 2.35% (inactive)

// sample COc1ccc(Cn2cc(CN3CCS(=O)(=O)N(Cc4ccc(-c5cccc(Cl)c5)cc4)C(C)C3=O)nn2)cc1 (stereo unspecified) , its inhibition was -1.87% (inactive)

The reported inhibition of the compound Cc1ccc(Cc2cnc(N)s2)o1 was 10.6% (inactive)

The compound listed as Cn1ccc(=Nc2ccc(NC(=O)c3ccc(N=c4ccn(C)c5ccc([N+](=O)[O-])cc45)cc3)cc2)cc1 shows inhibition equal to 21% (active)

CCOC(=O)c1ccc(Nc2cc3ccccc3c(=O)[nH]2)cc1 yielded inhibition of 29.8% (active)

Just so you know, measured inhibition for CC(=NCc1ccc2c(c1)OCO2)C1=C(O)c2ccccc2C1=O came out at -0.38% (inactive)

// inhibition lookup, compound = COc1ccc(S(=O)(=O)/N=C2\C=C(NS(=O)(=O)c3ccccc3)C(=O)c3ccccc32)cc1 , result: 5.95% (inactive)

// sample COCCn1nnnc1C(c1cc2ccc(OC)cc2[nH]c1=O)N1CCc2ccccc2C1 (stereo unspecified) , its inhibition was 0.92% (inactive)

// inhibition value for COc1ccc2[nH]c3c(C)c4cc[n+](C)cc4c(C)c3c2c1 : 42.7% (active)

For this compound ( CC1(C(=O)NS(=O)(=O)c2ccccc2)CCN1C(=O)Cc1ccc(-c2ccccc2)cc1 (stereo unspecified) ), measured inhibition is 1.27% (inactive)

Reported inhibition for O=C1OC(/C=C/c2ccccc2)=NC/1=C/c1ccco1 was -2.29% (inactive)
